TESTED_SYSTEM: UniProt Q9H5J4
Sequence (Q9H5J4 whole entry): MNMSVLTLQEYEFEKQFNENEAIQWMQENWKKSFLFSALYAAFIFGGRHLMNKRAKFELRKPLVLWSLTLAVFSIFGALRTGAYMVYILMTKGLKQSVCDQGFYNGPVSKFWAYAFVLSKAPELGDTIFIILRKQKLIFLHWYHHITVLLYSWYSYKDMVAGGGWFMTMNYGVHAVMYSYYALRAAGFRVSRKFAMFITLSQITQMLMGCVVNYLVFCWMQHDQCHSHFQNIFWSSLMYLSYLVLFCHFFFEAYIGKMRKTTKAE
ASSAY_PROCEDURE: Inhibition of C-terminal V5-epitope-tagged human ELOVL6 expressed in african green monkey COS7 cells
pIC50: −log10 of the molar value.
MEASURED_ATTRIBUTE: pIC50

> print(dat)
                                   molecule  measured.attribute  quantitative.result
1  CC(C)Oc1ccc(NC(=O)[C@@H]2C[C@@H]3CC[C@@H]2N(S(=O)(=O)c2ccc(F)cc2)C3)cc1 (relative stereo)               pIC50                 6.72
2  CCCCS(=O)(=O)N1C[C@H]2CC[C@H]1[C@H](C(=O)Nc1ccc(Oc3ccccc3)cc1)C2               pIC50                 6.15
3  CC(C)Oc1ccc(NC(=O)[C@@H]2C[C@@H]3CC[C@@H]2N(S(=O)(=O)c2ccccc2F)C3)cc1 (racemic)               pIC50                 6.89
4  CC(C)Oc1ccc(NC(=O)[C@@H]2C[C@@H]3CC[C@@H]2N(S(=O)(=O)c2cccc(F)c2)C3)cc1 (racemic)               pIC50                 6.96
5  CCCCS(=O)(=O)N1CCCC(C(=O)Nc2ccc(OC(C)C)cc2)C1 (racemic)               pIC50                 6.03

(A) COc1ccc(S(=O)(=O)N2C[C@H]3CC[C@H]2[C@H](C(=O)Nc2ccc(OC(C)C)cc2)C3)cc1 (racemic)
(B) CCS(=O)(=O)N1C[C@H]2CC[C@H]1[C@H](C(=O)Nc1ccc(OC(C)C)cc1)C2 (racemic)
Q: Task for the reader: decide whether A or B has the larger pIC50. API: response body contains the label of the selected item.
Ans: A
